tested on: right auricle (RA); test: Isolated right auricle, chronotropic effect; set-up: species or system rat (male Wistar); conditions: Rattus norvegicus; spontaneously beating; read-out: RIGHT AURICLE (RA) (CHRONOTROPIC EFFECT) IC50
endpoint: pIC50
# log scale: pIC50 equals minus log10 of the concentration in mol/L

[
  {
    "compound": "COc1cccc(C(C#N)(CCCN(C)CCc2ccc(OC)c3c2CCCN3C(C)=O)Sc2ccccc2)c1 (stereo not shown)",
    "pIC50": 5.00
  },
  {
    "compound": "COc1ccc(C(C#N)(CCCN(C)CCc2ccc(OC)c3c2CCCN3C(C)=O)Sc2ccccc2)cc1OC (stereo not shown)",
    "pIC50": 5.54
  },
  {
    "compound": "COc1cccc(C(C#N)(CCCN(C)CCc2ccc(OC)c3c2CCCN3C(C)=O)C(C)C)c1 (stereo not shown)",
    "pIC50": 6.00
  }
]

// next entry
right auricle (RA) / pIC50 / COc1ccc(C(C#N)(CCCN(C)CCc2ccc(OC)c3c2CCCN3C(C)=O)C(C)C)cc1OC (stereo not shown) : value?
5.82

###

Measured Kd, listed per entry for reference.
molecular target: UniProtKB P0DP23; assay: Calcium calmodulin binding, fluorescence of dansylated calmodulin; conditions: extrapolated to 0 calmodulin; read-out: Kd (cam)
Provide the reading as a plain figure in µM.

[
  {
    "compound": "COc1ccc(C(C#N)(CCCN(C)CCc2ccc(OC)c3c2CCCN3C(C)=O)C(C)C)cc1OC (stereo not shown) [Example 4]",
    "Kd, µM": 6.5
  },
  {
    "compound": "COc1cccc(C(C#N)(CCCN(C)CCc2ccc(OC)c3c2CCCN3C(C)=O)C(C)C)c1 (stereo not shown) [Example 13]",
    "Kd, µM": 34
  },
  {
    "compound": "COc1ccc(C(C#N)(CCCN(C)CCc2ccc(OC)c3c2CCCN3C(C)=O)Sc2ccccc2)cc1OC (stereo not shown) [Example 7]",
    "Kd, µM": 0.24
  }
]

Kd of COc1cccc(C(C#N)(CCCN(C)CCc2ccc(OC)c3c2CCCN3C(C)=O)Sc2ccccc2)c1 (stereo not shown) [Example 1] on UniProtKB P0DP23?
0.81

###

Biological target: UniProt:P0DP23
Experiment: Calcium calmodulin binding, fluorescence of dansylated calmodulin
Conditions: close to 1 indicates vascular inhibition through calmodulin
Experimental: b. Fixation on calcium calmodulin binding The orientations of synthesis which may lead to possibilities of inhibiting calmodulin are evaluated by measuring the fluorescence of dansylated calmodulin. The substances to be tested are added to the experimental vessel (2 ml). The increase in fluorescence of dansylated calmodulin enables effect-dose curves to be constructed; measuring the EC50 gives an apparent Kd value. […]
endpoint: Kd/IC50 AORTA K+
Give the value as a plain number.

Observe how each entry below is paired with its result.
[
  {
    "molecule": "COc1ccc(C(C#N)(CCCN(C)CCc2ccc(OC)c3c2CCCN3C(C)=O)C(C)C)cc1OC (stereo not shown) [Example 4]",
    "Kd/IC50 AORTA K+": 10.8
  },
  {
    "molecule": "COc1ccc(C(C#N)(CCCN(C)CCc2ccc(OC)c3c2CCCN3C(C)=O)Sc2ccccc2)cc1OC (stereo not shown) [Example 7]",
    "Kd/IC50 AORTA K+": 0.66
  },
  {
    "molecule": "COc1cccc(C(C#N)(CCCN(C)CCc2ccc(OC)c3c2CCCN3C(C)=O)C(C)C)c1 (stereo not shown) [Example 13]",
    "Kd/IC50 AORTA K+": 97
  }
]

Now take the following molecule into account.
// Kd/IC50 AORTA K+ lookup, key: COc1cccc(C(C#N)(CCCN(C)CCc2ccc(OC)c3c2CCCN3C(C)=O)Sc2ccccc2)c1 (stereo not shown) [Example 1]
1.08

###

LA/AORTA SELECTIVITY (St:K+) values, listed per item
system: left auricle / aorta; assay: Evaluation of myocardium/vessel selectivity (IC50 LA/IC50 aorta); design: species or system rat (male Wistar); conditions: IC50 LA/IC50 aorta; high values indicate vascular selectivity
The reply should be a number, written without any unit.

Example entries and their recorded answers appear below.
[
  {
    "compound": "COc1cccc(C(C#N)(CCCN(C)CCc2ccc(OC)c3c2CCCN3C(C)=O)C(C)C)c1 (stereo not shown)",
    "experimental system": "left auricle / aorta",
    "result value": 20
  },
  {
    "compound": "COc1ccc(C(C#N)(CCCN(C)CCc2ccc(OC)c3c2CCCN3C(C)=O)C(C)C)cc1OC (stereo not shown)",
    "experimental system": "left auricle / aorta",
    "result value": 13
  },
  {
    "compound": "COc1cccc(C(C#N)(CCCN(C)CCc2ccc(OC)c3c2CCCN3C(C)=O)Sc2ccccc2)c1 (stereo not shown)",
    "experimental system": "left auricle / aorta",
    "result value": 100
  }
]

So what LA/AORTA SELECTIVITY (St:K+) did COc1ccc(C(C#N)(CCCN(C)CCc2ccc(OC)c3c2CCCN3C(C)=O)Sc2ccccc2)cc1OC (stereo not shown) get with left auricle / aorta?
15
